# assayed-system: Sodium-dependent serotonin transporter (Homo sapiens, UniProt P31645)
# Sequence (P31645 whole entry): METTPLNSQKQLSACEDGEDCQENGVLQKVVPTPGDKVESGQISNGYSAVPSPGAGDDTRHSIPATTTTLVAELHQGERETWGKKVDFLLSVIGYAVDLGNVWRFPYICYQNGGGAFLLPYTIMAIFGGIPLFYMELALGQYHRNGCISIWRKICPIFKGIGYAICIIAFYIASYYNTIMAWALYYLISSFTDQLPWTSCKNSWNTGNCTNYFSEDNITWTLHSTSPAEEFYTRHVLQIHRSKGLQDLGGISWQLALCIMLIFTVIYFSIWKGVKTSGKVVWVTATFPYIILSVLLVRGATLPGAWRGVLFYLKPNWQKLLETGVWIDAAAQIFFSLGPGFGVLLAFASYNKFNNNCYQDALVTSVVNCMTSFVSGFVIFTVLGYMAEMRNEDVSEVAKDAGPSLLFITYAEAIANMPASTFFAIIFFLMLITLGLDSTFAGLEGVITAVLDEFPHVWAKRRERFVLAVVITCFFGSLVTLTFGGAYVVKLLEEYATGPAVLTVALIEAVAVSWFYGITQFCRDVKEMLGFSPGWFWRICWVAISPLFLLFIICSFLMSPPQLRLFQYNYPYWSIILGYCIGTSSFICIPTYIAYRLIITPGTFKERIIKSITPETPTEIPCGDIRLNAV
# assay-info: Inhibition of [3H]5-HT reuptake in HEK293 cells expressing human serotonin transporter

compound: c1ccc(CN2CCC(NCCOC(c3ccccc3)c3ccccc3)CC2)cc1
quantity-unit: nM
IC50: 1860

compound: c1ccc(CCCNCC2CCCN(CCOC(c3ccccc3)c3ccccc3)C2)cc1 (stereo not given)
quantity-unit: nM
IC50: 770

compound: Fc1ccc(CCN2CCCC(CNCCOC(c3ccccc3)c3ccccc3)C2)cc1 (stereo not given)
quantity-unit: nM
IC50: 1130

compound: CN(CCOC(c1ccccc1)c1ccccc1)C1CCN(CCCc2ccccc2)CC1
quantity-unit: nM
IC50: 1910

compound: CN(CCc1ccc(F)cc1)CC1CCCN(CCOC(c2ccccc2)c2ccccc2)C1 (stereo not given)
quantity-unit: nM
IC50: 2130

compound: CN(CCCc1ccccc1)C1CCN(CCOC(c2ccccc2)c2ccccc2)CC1
quantity-unit: nM
IC50: 310

compound: Fc1ccc(CCNCC2CCCN(CCOC(c3ccccc3)c3ccccc3)C2)cc1 (stereo not given)
quantity-unit: nM
IC50: 1830

compound: Fc1ccc(CCNC2CCN(CCOC(c3ccccc3)c3ccccc3)CC2)cc1
quantity-unit: nM
IC50: 470

compound: c1ccc(CCCNC2CCN(CCOC(c3ccccc3)c3ccccc3)CC2)cc1
quantity-unit: nM
IC50: 390

compound: c1ccc(CCCN2CCCC(CNCCOC(c3ccccc3)c3ccccc3)C2)cc1 (stereo not given)
quantity-unit: nM
IC50: 820

###

pKi: −log10 of the molar value.
Let's go through some pKi measurements on Sodium-dependent dopamine transporter (Homo sapiens, UniProt Q01959) together.
Sequence (Q01959 whole entry): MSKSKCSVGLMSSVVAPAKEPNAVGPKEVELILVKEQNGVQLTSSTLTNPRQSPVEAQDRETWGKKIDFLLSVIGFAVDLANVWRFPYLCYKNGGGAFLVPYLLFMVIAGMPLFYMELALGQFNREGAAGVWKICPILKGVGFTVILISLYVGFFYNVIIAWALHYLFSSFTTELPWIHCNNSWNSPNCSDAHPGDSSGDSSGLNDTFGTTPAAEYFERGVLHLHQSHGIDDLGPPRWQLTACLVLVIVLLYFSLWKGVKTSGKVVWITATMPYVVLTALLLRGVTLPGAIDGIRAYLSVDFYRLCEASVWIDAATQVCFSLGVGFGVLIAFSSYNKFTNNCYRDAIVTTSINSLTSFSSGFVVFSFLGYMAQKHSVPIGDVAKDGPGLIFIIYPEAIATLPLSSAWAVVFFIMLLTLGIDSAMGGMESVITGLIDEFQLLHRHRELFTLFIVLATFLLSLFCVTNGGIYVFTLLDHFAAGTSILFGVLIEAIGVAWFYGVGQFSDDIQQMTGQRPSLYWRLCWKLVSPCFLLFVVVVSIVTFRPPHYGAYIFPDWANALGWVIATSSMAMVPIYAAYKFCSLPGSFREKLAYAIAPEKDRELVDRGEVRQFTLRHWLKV
experimental-readout: pKi

molecule: Fc1ccc(CCN2CCCC(CNCCOC(c3ccccc3)c3ccccc3)C2)cc1 (stereo not given)
observed-value: 7.00

molecule: Fc1ccc(CCNC2CCN(CCOC(c3ccccc3)c3ccccc3)CC2)cc1
observed-value: 6.96

molecule: CN(CCc1ccc(F)cc1)CC1CCCN(CCOC(c2ccccc2)c2ccccc2)C1 (stereo not given)
observed-value: 7.05

molecule: c1ccc(CCCNC2CCN(CCOC(c3ccccc3)c3ccccc3)CC2)cc1
observed-value: 6.80

molecule: Fc1ccc(CCNCC2CCCN(CCOC(c3ccccc3)c3ccccc3)C2)cc1 (stereo not given)
observed-value: 7.06

molecule: c1ccc(CN2CCC(NCCOC(c3ccccc3)c3ccccc3)CC2)cc1
observed-value: 7.08

molecule: CN(CCCc1ccccc1)C1CCN(CCOC(c2ccccc2)c2ccccc2)CC1
observed-value: 6.47

molecule: c1ccc(CCCN2CCCC(CNCCOC(c3ccccc3)c3ccccc3)C2)cc1 (stereo not given)
observed-value: 7.74

molecule: c1ccc(CCCNCC2CCCN(CCOC(c3ccccc3)c3ccccc3)C2)cc1 (stereo not given)
observed-value: 7.15

molecule: CN(CCOC(c1ccccc1)c1ccccc1)C1CCN(CCCc2ccccc2)CC1
observed-value: 7.52

###

# assayed-system: Sodium-dependent noradrenaline transporter (Homo sapiens)
# Sequence (P23975 whole entry): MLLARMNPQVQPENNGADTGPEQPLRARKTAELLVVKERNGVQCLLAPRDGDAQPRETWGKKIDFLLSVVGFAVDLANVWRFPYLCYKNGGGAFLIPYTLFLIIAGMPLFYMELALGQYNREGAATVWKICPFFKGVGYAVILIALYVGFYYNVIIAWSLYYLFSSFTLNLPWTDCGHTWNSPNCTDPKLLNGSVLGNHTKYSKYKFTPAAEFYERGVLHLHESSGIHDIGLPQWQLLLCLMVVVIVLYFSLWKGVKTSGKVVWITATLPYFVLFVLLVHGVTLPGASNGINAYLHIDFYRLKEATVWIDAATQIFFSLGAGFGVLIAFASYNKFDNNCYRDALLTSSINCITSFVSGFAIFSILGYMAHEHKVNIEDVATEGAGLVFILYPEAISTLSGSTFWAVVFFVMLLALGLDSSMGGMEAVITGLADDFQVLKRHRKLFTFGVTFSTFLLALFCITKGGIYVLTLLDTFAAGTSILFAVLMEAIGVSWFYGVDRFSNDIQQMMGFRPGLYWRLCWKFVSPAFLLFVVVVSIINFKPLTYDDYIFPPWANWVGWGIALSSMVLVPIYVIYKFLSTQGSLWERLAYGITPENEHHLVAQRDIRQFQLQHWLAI
# note: boundary value 40 nM maps to N; Ki below it maps to Y

compound: CN(CCOC(c1ccccc1)c1ccccc1)C1CCN(CCCc2ccccc2)CC1
discrete-label: Y

compound: c1ccc(CCCN2CCN(CCOC(c3ccccc3)c3ccccc3)CC2)cc1
discrete-label: N

compound: Fc1ccc(CCNCC2CCCN(CCOC(c3ccccc3)c3ccccc3)C2)cc1 (stereo unspecified)
discrete-label: N

compound: CN(CCc1ccc(F)cc1)CC1CCCN(CCOC(c2ccccc2)c2ccccc2)C1 (stereo unspecified)
discrete-label: N

compound: CN(CCCc1ccccc1)C1CCN(CCOC(c2ccccc2)c2ccccc2)CC1
discrete-label: N

compound: Fc1ccc(CCNC2CCN(CCOC(c3ccccc3)c3ccccc3)CC2)cc1
discrete-label: N

compound: c1ccc(CN2CCC(NCCOC(c3ccccc3)c3ccccc3)CC2)cc1
discrete-label: N

compound: Fc1ccc(CCN2CCCC(CNCCOC(c3ccccc3)c3ccccc3)C2)cc1 (stereo unspecified)
discrete-label: N

compound: c1ccc(CCCN2CCCC(CNCCOC(c3ccccc3)c3ccccc3)C2)cc1 (stereo unspecified)
discrete-label: Y

compound: c1ccc(CCCNC2CCN(CCOC(c3ccccc3)c3ccccc3)CC2)cc1
discrete-label: N
